system: 485176-168-R4-J1-PDC complex spheroid growth; test: Anticancer human tumor 485176-168-R4-J1-PDC patient-derived pancreatic adenocarcinoma cell line growth inhibition [RAS]; settings: second compound 1 µM; first compound 0.316 µM; hits give low values
MEASUREMENT TYPE: viability, T/C (%)
Give bare numbers, in %.

Guide cases for viability, T/C, answers given:
CCN1CCN(Cc2ccc(Nc3ncc(F)c(-c4cc(F)c5nc(C)n(C(C)C)c5c4)n3)nc2)CC1 + C=CC(=O)N1CCN(c2nc(OCC3CCCN3C)nc3c(F)c(-c4nc(N)cc(C)c4C(F)(F)F)c(Cl)cc23)C(C)C1    83.9
Nc1ccn(C2OC(CO)C(O)C2(F)F)c(=O)n1 (centres undefined) + C#Cc1c(F)ccc2cc(O)cc(-c3ncc4c(N5CC6CCC(C5)N6)nc(OCC56CCCN5CC(F)C6)nc4c3F)c12    10.2
C[C@@H](NC(=O)c1ncnc(N)c1Cl)c1ncc(C(=O)Nc2cc(C(F)(F)F)c(Cl)cn2)s1 + C=CC(=O)N1CCN(c2nc(OCC3CCCN3C)nc3c(F)c(-c4nc(N)cc(C)c4C(F)(F)F)c(Cl)cc23)C(C)C1    77.3
CC(Nc1ccc2c(c1)OCCn1cc(N3C(=O)OCC3C(F)F)nc1-2)C(N)=O (centres undefined) + C#Cc1c(F)ccc2cc(O)cc(-c3ncc4c(N5CC6CCC(C5)N6)nc(OCC56CCCN5CC(F)C6)nc4c3F)c12    85.8
Nc1ccn(C2OC(CO)C(O)C2(F)F)c(=O)n1 (centres undefined) + C=CC(=O)N1CCN(c2nc(OCC3CCCN3C)nc3c(F)c(-c4nc(N)cc(C)c4C(F)(F)F)c(Cl)cc23)C(C)C1    9.99
NC1c2ccccc2OC12CCN(c1cnc3c(N4CCCc5ncccc54)n[nH]c3n1)CC2 (centres undefined) + C=CC(=O)N1CCN(c2nc(OCC3CCCN3C)nc3c(F)c(-c4nc(N)cc(C)c4C(F)(F)F)c(Cl)cc23)C(C)C1    69.5
C=CC(=O)Nc1cc(Nc2nccc(-c3cn(C)c4ccccc34)n2)c(OC)cc1N(C)CCN(C)C + C=CC(=O)N1CCN(c2nc(OCC3CCCN3C)nc3c(F)c(-c4nc(N)cc(C)c4C(F)(F)F)c(Cl)cc23)C(C)C1    75.5
CC(C)NCC(C(=O)N1CCN(c2ncnc3c2C(C)CC3O)CC1)c1ccc(Cl)cc1 (centres undefined) + C#Cc1c(F)ccc2cc(O)cc(-c3ncc4c(N5CC6CCC(C5)N6)nc(OCC56CCCN5CC(F)C6)nc4c3F)c12    72.4
CC(=O)OC12COC1CC(O)C1(C)C(=O)C(O)C3=C(C)C(OC(=O)C(O)C(NC(=O)OC(C)(C)C)c4ccccc4)CC(O)(C(OC(=O)c4ccccc4)C21)C3(C)C (centres undefined) + C=CC(=O)N1CCN(c2nc(OCC3CCCN3C)nc3c(F)c(-c4nc(N)cc(C)c4C(F)(F)F)c(Cl)cc23)C(C)C1    9.77
O=C(c1ccc(F)c(F)c1Nc1ccc(I)cc1F)N1CC(O)([C@@H]2CCCCN2)C1 + C#Cc1c(F)ccc2cc(O)cc(-c3ncc4c(N5CC6CCC(C5)N6)nc(OCC56CCCN5CC(F)C6)nc4c3F)c12    58.2

Your task in this section: give viability, T/C for each listed record.
1. CCC(CC)c1cc(NC2CCC(N)C2)n2nccc2n1 (centres undefined) + C=CC(=O)N1CCN(c2nc(OCC3CCCN3C)nc3c(F)c(-c4nc(N)cc(C)c4C(F)(F)F)c(Cl)cc23)C(C)C1
2. C=CC(=O)N1CCN(c2nc(OCC3CCCN3C)nc3c(F)c(-c4nc(N)cc(C)c4C(F)(F)F)c(Cl)cc23)C(C)C1 (centres undefined) + C#Cc1c(F)ccc2cc(O)cc(-c3ncc4c(N5CC6CCC(C5)N6)nc(OCC56CCCN5CC(F)C6)nc4c3F)c12
3. C=CC(=O)Nc1cc(Nc2nccc(-c3cn(C)c4ccccc34)n2)c(OC)cc1N(C)CCN(C)C + C#Cc1c(F)ccc2cc(O)cc(-c3ncc4c(N5CC6CCC(C5)N6)nc(OCC56CCCN5CC(F)C6)nc4c3F)c12
4. CC1(O)CCCC1n1c(=O)c(C(F)F)cc2cnc(NC3CCN(S(C)(=O)=O)CC3)nc21 (centres undefined) + C=CC(=O)N1CCN(c2nc(OCC3CCCN3C)nc3c(F)c(-c4nc(N)cc(C)c4C(F)(F)F)c(Cl)cc23)C(C)C1
5. CC1(O)CCCC1n1c(=O)c(C(F)F)cc2cnc(NC3CCN(S(C)(=O)=O)CC3)nc21 (centres undefined) + C#Cc1c(F)ccc2cc(O)cc(-c3ncc4c(N5CC6CCC(C5)N6)nc(OCC56CCCN5CC(F)C6)nc4c3F)c12
6. C[C@@H](NC(=O)c1ncnc(N)c1Cl)c1ncc(C(=O)Nc2cc(C(F)(F)F)c(Cl)cn2)s1 + C#Cc1c(F)ccc2cc(O)cc(-c3ncc4c(N5CC6CCC(C5)N6)nc(OCC56CCCN5CC(F)C6)nc4c3F)c12

89.6
97.1
85.2
69.4
66.8
101

Your task in this section: give viability, T/C for each listed record.
1. NC1c2ccccc2OC12CCN(c1cnc3c(N4CCCc5ncccc54)n[nH]c3n1)CC2 (centres undefined) + C#Cc1c(F)ccc2cc(O)cc(-c3ncc4c(N5CC6CCC(C5)N6)nc(OCC56CCCN5CC(F)C6)nc4c3F)c12
2. Cc1nc(N2CCC3(CC2)COC(C)C3N)c(CO)nc1Sc1ccnc(N)c1Cl (centres undefined) + C=CC(=O)N1CCN(c2nc(OCC3CCCN3C)nc3c(F)c(-c4nc(N)cc(C)c4C(F)(F)F)c(Cl)cc23)C(C)C1
3. CC(C)NCC(C(=O)N1CCN(c2ncnc3c2C(C)CC3O)CC1)c1ccc(Cl)cc1 (centres undefined) + C=CC(=O)N1CCN(c2nc(OCC3CCCN3C)nc3c(F)c(-c4nc(N)cc(C)c4C(F)(F)F)c(Cl)cc23)C(C)C1

1: 85.5; 2: 80.4; 3: 79.1

---

system: 485176-168-R4-J1-PDC complex spheroid growth; experiment: Anticancer human tumor 485176-168-R4-J1-PDC cell line growth inhibition [RAS]; conditions: second compound 0.000949 µM; first compound 1 µM; hits give low values;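 note: spheroids exposed to compounds for seven days before readout; luminescence viability expressed relative to DMSO vehicle wells set as 100%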
MEASUREMENT TYPE: viability, T/C (%)
Answers are plain numbers, in %.

Guide cases for viability, T/C, answers given:
CC(C)NCC(C(=O)N1CCN(c2ncnc3c2C(C)CC3O)CC1)c1ccc(Cl)cc1 (centres undefined) + CCn1c(-c2cccnc2C(C)OC)c2c3cc(ccc31)N1CCOC(CC(NC(=O)C(C(C)C)N(C)C(=O)C3(F)CCN(C(=O)C#CC(C)(C)N(C)C)CC3)C(=O)N3CCCC(N3)C(=O)OCC(C)(C)C2)C1    60
C[C@@H](NC(=O)c1ncnc(N)c1Cl)c1ncc(C(=O)Nc2cc(C(F)(F)F)c(Cl)cn2)s1 + CCn1c(-c2cccnc2C(C)OC)c2c3cc(ccc31)N1CCOC(CC(NC(=O)C(C(C)C)N(C)C(=O)C3(F)CCN(C(=O)C#CC(C)(C)N(C)C)CC3)C(=O)N3CCCC(N3)C(=O)OCC(C)(C)C2)C1    85.9
O=C(c1ccc(F)c(F)c1Nc1ccc(I)cc1F)N1CC(O)([C@@H]2CCCCN2)C1 + CCn1c(-c2cc(N3CCN(C)CC3)cnc2C(C)OC)c2c3cc(ccc31)-c1csc(n1)CC(NC(=O)C1CC1C)C(=O)N1CCCC(N1)C(=O)OCC(C)(C)C2    34.1

Now for another entry.
Suppose we examine the compound CCN1CCN(Cc2ccc(Nc3ncc(F)c(-c4cc(F)c5nc(C)n(C(C)C)c5c4)n3)nc2)CC1 + CCn1c(-c2cc(N3CCN(C)CC3)cnc2C(C)OC)c2c3cc(ccc31)-c1csc(n1)CC(NC(=O)C1CC1C)C(=O)N1CCCC(N1)C(=O)OCC(C)(C)C2 ; what viability, T/C value has been reported?
54.8

---

Test system: 485176-168-R4-J1-PDC complex spheroid growth
Test: Anticancer human tumor 485176-168-R4-J1-PDC cell line growth inhibition [RAS];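 note: spheroids exposed to compounds for seven days before readout; luminescence viability expressed relative to DMSO vehicle wells set as 100%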
Conditions: second compound 10 µM; first compound 3.16 µM; hits give low values
Source text: RAS pathway inhibitors in Combinations in Complex Spheroids A high-throughput screen of multi-cell type tumor spheroids was designed to identify active combinations of RAS pathway inhibitors and targeted small molecules. Complex spheroids include a stromal component modeled by human endothelial cells (HUVEC) and fibroblasts modeled by human mesenchymal stem cells (MSCs). […] Compounds. […] If the clinical Cmax for an agent had not been determined, the highest concentration tested was 10 microM. […]
MEASUREMENT TYPE: viability, T/C (%)
Answers are plain numbers, in %.

Guide cases for viability, T/C, answers given:
CC(Nc1ccc2c(c1)OCCn1cc(N3C(=O)OCC3C(F)F)nc1-2)C(N)=O (stereo not drawn) + C#Cc1c(F)ccc2cc(O)cc(-c3ncc4c(N5CC6CCC(C5)N6)nc(OCC56CCCN5CC(F)C6)nc4c3F)c12    72.1
CC(=O)OC12COC1CC(O)C1(C)C(=O)C(O)C3=C(C)C(OC(=O)C(O)C(NC(=O)OC(C)(C)C)c4ccccc4)CC(O)(C(OC(=O)c4ccccc4)C21)C3(C)C (stereo not drawn) + C#Cc1c(F)ccc2cc(O)cc(-c3ncc4c(N5CC6CCC(C5)N6)nc(OCC56CCCN5CC(F)C6)nc4c3F)c12    16

Suppose we examine the molecule CC1(O)CCCC1n1c(=O)c(C(F)F)cc2cnc(NC3CCN(S(C)(=O)=O)CC3)nc21 (stereo not drawn) + C#Cc1c(F)ccc2cc(O)cc(-c3ncc4c(N5CC6CCC(C5)N6)nc(OCC56CCCN5CC(F)C6)nc4c3F)c12 ; what viability, T/C value has been reported?
55.9
